experimental details: Metabolic stability in human liver microsome assessed as parent compound remaining preincubated for 10 mins followed by NADPH addition and measured at 5 mins by LC-MS/MS analysis
Format: ADME
run conditions: liver microsomes, time 15 min, read-out: Stability
assay metric: remaining at 5 min

Specify reported remaining at 5 min for the compound shown: "CCc1cccc(CC)c1N1CCn2cc(-c3nc(Nc4ccc(N5CCN(C(C)=O)CC5)cc4OC)nc4[nH]ncc34)cc2C1=O"
82.7%

====

experimental details: Half life in Sprague-Dawley rat at 2 mg/kg, iv measured upto 24 hrs by LC-MS/MS analysis
Type: ADME, organism-based
run conditions: in vivo
assay metric: half-life

Specify reported half-life for the compound shown: "CCc1cccc(CC)c1N1CCn2cc(-c3nc(Nc4ccc(N5CCN(C(C)=O)CC5)cc4OC)nc4[nH]ncc34)cc2C1=O"
49.5 min

====

experimental details: Half life in Sprague-Dawley rat at 10 mg/kg, po measured upto 24 hrs by LC-MS/MS analysis
Assay type: ADME, organism-based
run conditions: in vivo
assay metric: half-life (h)
Lab book: enter the figure in h, no units written.

Specify reported half-life for the molecule shown: "CCc1cccc(CC)c1N1CCn2cc(-c3nc(Nc4ccc(N5CCN(C(C)=O)CC5)cc4OC)nc4[nH]ncc34)cc2C1=O"
1.05

====

System: MDA-MB-468
experimental details: cells
Type: functional, cell-based
run conditions: Homo sapiens, MDA-MB-468, 72 h
Description: Antiproliferative activity against human MDA-MB-468 cells assessed inhibition of cell growth incubated for 72 hrs by CCK-8 assay
assay metric: pIC50
Answer as the number alone; pIC50 is minus log10 of concentration in mol/L.

These recorded examples may help you get a feel for the data.
CCc1cccc(CC)c1N1CCn2cc(-c3nc(Nc4ccc(N5CCOCC5)cc4OC)nc4[nH]ncc34)cc2C1=O : 6.18
C=CC(=O)Nc1cc(N2CCOCC2)ccc1Nc1nc(-c2cc3n(c2)CCN(c2c(CC)cccc2CC)C3=O)c2cn[nH]c2n1 : 5.58
COc1cc(N2CCN(C(C)=O)CC2)ccc1Nc1nc(OC2CCCC2)c2c(-c3ccc(OC)c(OC)c3)n[nH]c2n1 : 6.00

Then there is this compound:
Look up and report pIC50, with MDA-MB-468 as system, for "COc1cc(N2CCN(C)CC2)ccc1Nc1nc(-n2ccc(C(=O)Nc3c(C)cccc3C)c2)c2cn[nH]c2n1"
6.07

====

experimental details: AUC (0 to t) in Sprague-Dawley rat at 2 mg/kg, iv measured upto 24 hrs by LC-MS/MS analysis
Type: ADME, organism-based
Design: dose 2 mg/kg, time < 24 hrs, route iv
run conditions: in vivo
assay metric: AUC(0-t) at 24 h
Phrase the answer as number then unit, nothing more needed.

Specify reported AUC(0-t) at 24 h for the compound shown: "CCc1cccc(CC)c1N1CCn2cc(-c3nc(Nc4ccc(N5CCN(C(C)=O)CC5)cc4OC)nc4[nH]ncc34)cc2C1=O"
1050 ng·h/mL

====

experimental details: Tmax in Sprague-Dawley rat at 2 mg/kg, iv measured upto 24 hrs by LC-MS/MS analysis
Format: ADME, organism-based
run conditions: in vivo
assay metric: Tmax (min)
Lab book: enter the figure in min, no units written.

Specify reported Tmax for the compound shown: "CCc1cccc(CC)c1N1CCn2cc(-c3nc(Nc4ccc(N5CCN(C(C)=O)CC5)cc4OC)nc4[nH]ncc34)cc2C1=O"
4.98

====

experimental details: Metabolic stability in human microsome assessed as intrinsic clearance preincubated for 10 mins followed by NADPH addition and measured upto 60 mins by LC-MS/MS analysis
Type: ADME
run conditions: microsomes, time < 70 min
# microsomal CLint values compiled below

O=C(O)Cc1ccccc1Nc1c(Cl)cccc1Cl [DICLOFENAC] : 126 µL/min/mg

Then there is this molecule:
Specify reported microsomal CLint for the molecule shown: "CCc1cccc(CC)c1N1CCn2cc(-c3nc(Nc4ccc(N5CCN(C(C)=O)CC5)cc4OC)nc4[nH]ncc34)cc2C1=O"
39.4 µL/min/mg

Attribution: ChEMBL document CHEMBL5360570
